Please provide measured Papp at 90 min, 10 μM for the entries that follow.
Test: Permeability and efflux analysis in Caco-2 cells
Details: human

CC(C)C[C@H](NC(=O)[C@H](Cc1ccc(O)cc1)NC(=O)c1ccc(C#N)cc1)C(=O)Nc1cc(C(=O)NCc2ccccc2)cc(-c2ccc(C(N)=O)cc2)c1 [Inhibitor 14ba-OH]: < 2 ×10⁻⁶ cm/s

With those in mind, consider the next compound.
## Task What does the record list as Papp at 90 min, 10 μM for CC(C)C[C@H](NC(=O)[C@H](Cc1ccc(O)cc1)NC(=O)c1ccc(C#N)cc1)C(=O)Nc1ccc(C(=O)NCc2ccccc2)c(-c2ccc(C(N)=O)cc2)c1 [Inhibitor 14aa-OH] ?
## Result < 2 ×10⁻⁶ cm/s

----------
Experiment: in vitro
Details: human, Caco-2, pH 7.4
measuredAttribute: Papp A→B at 90 min, 10 μM

## Task Reported Papp A→B at 90 min, 10 μM for CC(C)C[C@H](NC(=O)[C@H](Cc1ccc(OP(=O)(O)O)cc1)NC(=O)c1ccc(C#N)cc1)C(=O)Nc1cc(C(=O)NCc2ccccc2)cc(-c2ccc(C(N)=O)cc2)c1 [Inhibitor 14ba] : what is it?
## Result < 0.5 ×10⁻⁶ cm/s

# credit: paper PMC3151534
